assay: chemical genetic growth profiling, strain panel (AID 1159580);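 note: tested at 20 µM; growth read once vehicle control cultures reached saturation at 30 °C; 1 = growth at the plate median or of vehicle wells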; details: S. cerevisiae deletion strains, growth OD, locus YDL028C, strain MPS1, stronger effect = lower value
The whole screen tested about 5,500 compounds, of which about 2,000 (36%) were called active. Not shown: some 18% with an inconclusive outcome. This is one part of the list.
reported-property: normalized growth
Give the value as a plain number.

Answered cases to consult:
molecular-string: CCOC(=O)c1cnc(-c2ccccn2)[nH]c1=O
normalized growth: 0.94
//
molecular-string: N/C(=N/OCc1c(F)cccc1Cl)c1ccc(Cl)cc1
normalized growth: 0.93
//
molecular-string: Cc1cc(Sc2c([N+](=O)[O-])cc(C(F)(F)F)cc2[N+](=O)[O-])c(Cl)cc1Cl
normalized growth: 0.99
//
molecular-string: CC(=O)c1ccc(Sc2ccccc2)c([N+](=O)[O-])c1
normalized growth: 0.885
//
molecular-string: COC(=O)c1cc(I)c(OC(C)=O)c(I)c1
normalized growth: 0.961

We next turn to a different compound, shown below.
Value of normalized growth reported for the compound Cc1cc(N=Cc2cc(Cl)cc(Cl)c2O)no1 is 0.95

* * *

assay: chemical genetic growth profiling, strain panel (AID 1159580); settings: S. cerevisiae deletion strains, growth OD, locus YNL233W, strain BNI4, stronger effect = lower value
Screen size: about 5,500 compounds; about 2,000 (36%) were called active. Roughly 18% stayed inconclusive and do not appear here. This is one part of the list.
reported-property: normalized growth
Keep the answer to the number alone.

compound: CC(=O)OC1CCC23CC1(C)CCC2C(C)(C)CC3OC(C)=O (stereo not given)
normalized growth: 1.01
--
compound: C=C[C@H]1CN2CC[C@H]1C[C@H]2[C@H](O)c1ccnc2ccccc12
normalized growth: 0.999
--
compound: CC(=O)OC1CCC2(O)CC1(C)CCC1C2CC1(C)C (stereo not given)
normalized growth: 1.05

Record CC(C)C1CCC(C(=O)N[C@@H](Cc2ccccc2)C(=O)O)CC1 (stereo not given in full) . Reported normalized growth: 1.01

For record O=C1c2cccc(O)c2C(=O)c2c(O)cccc21 the listed normalized growth is 0.729

* * *

experiment: chemical genetic growth profiling, strain panel (AID 1159580); conditions: S. cerevisiae deletion strains, growth OD, locus YNL020C, strain ARK1, stronger effect = lower value
Among all 5,500 compounds or so, about 2,000 (36%) were called active. Roughly 18% stayed inconclusive and do not appear here. Some of the results follow.
reported-property: normalized growth
Kindly provide the number alone.

Previously resolved entries follow.
compound: Cn1ncc(-c2nc(-c3ccc(Cl)cc3)cs2)c1N
reported-property: normalized growth
assay-value: 0.897

compound: Cc1ccc2nc3c(nc2c1)-c1ccccc1C3=O
reported-property: normalized growth
assay-value: 0.196

compound: NNC(=O)c1oc2nc(-c3ccccc3)cc(-c3ccccc3)c2c1N
reported-property: normalized growth
assay-value: 0.935

compound: COC(=O)c1sccc1S(=O)(=O)Nc1cc(C(F)(F)F)cc(C(F)(F)F)c1
reported-property: normalized growth
assay-value: 0.956

compound: O=[N+]([O-])c1ccc(Sc2ccccc2)cc1O
reported-property: normalized growth
assay-value: 0.837

compound: O=C(Nc1ccc(F)cc1)c1cc(Br)ccc1O
reported-property: normalized growth
assay-value: 0.797

Notebook: S=C(NCCc1csc2ccccc12)Nc1ccc(Cl)cc1 , normalized growth read as 0.795

Form field normalized growth, entry N/C(=N/OCc1c(F)cccc1Cl)c1ccc(Cl)cc1 : 0.926

Lab book: normalized growth of O=[N+]([O-])c1ccc(NCc2ccc(Cl)c(Cl)c2)nc1 noted as 0.893

normalized growth measured on FC(F)(F)c1ccncc1-c1nc(-c2ccc(Cl)cc2)cs1 = 0.906

* * *

experiment: chemical genetic growth profiling, strain panel (AID 1159580); details: S. cerevisiae deletion strains, growth OD, locus YCL069W, strain vba3, stronger effect = lower value
About 2,000 (36%) of roughly 5,500 compounds were called active. Roughly 18% stayed inconclusive and do not appear here. The list shows a part of the results.
Overview of reported normalized growth across a group of compounds:
Give the figure only, with no unit attached.

normalized growth recorded for this compound, Cn1c(=O)c2c(ncn2CCO)n(C)c1=O , is 1.02

The reported normalized growth of the compound Cn1c(=O)[nH]c2nc[nH]c2c1=O was 0.993

Briefly, normalized growth measured for CC(C)C1CCC(C(=O)N[C@@H](Cc2ccccc2)C(=O)O)CC1 (some centres undefined) : 0.979

// COc1cc(Cc2cnc(N)nc2N)cc(OC)c1OC : normalized growth value = 1.02

* * *

assay: chemical genetic growth profiling, strain panel (AID 1159580); conditions: S. cerevisiae deletion strains, growth OD, locus YJR066W, strain TOR1, stronger effect = lower value
Out of some 5,500 compounds screened, about 2,000 (36%) were called active. Roughly 18% stayed inconclusive and do not appear here. Some of the results follow.
Quick rule for you: normalized growth under 0.9 gets Satisfied, anything else gets Not satisfied.

Answered cases to consult:
molecule: Cc1cc(N=Cc2cc(Cl)cc(Cl)c2O)no1
class-name: Satisfied

molecule: Oc1cccc2cccnc12
class-name: Satisfied

molecule: Cc1oc(C(C)(C)C)cc1-c1cc(NC(=O)c2ccccc2)n[nH]1
class-name: Satisfied

molecule: CO/N=C(/C(=O)NC1C(=O)N2C(C(=O)OCOC(=O)C(C)(C)C)=C(/C=C\c3scnc3C)CSC12)c1csc(N)n1 (centres undefined)
class-name: Not satisfied

molecule: O=C(CCc1ccc(O)cc1)c1c(O)cc(O)cc1O
class-name: Not satisfied

molecule: CC(=O)OC1CCC23CC1(C)CCC2C(C)(C)CC3OC(C)=O (centres undefined)
class-name: Not satisfied

Attention now turns to another entry.
// query Please state whether normalized growth is below 0.9 for O=C(O)[C@H]1/C(=C/CO)O[C@@H]2CC(=O)N21
// result Not satisfied

* * *

Listed here: items and their measured normalized growth.
assay: chemical genetic growth profiling, strain panel (AID 1159580);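 note: tested at 20 µM; growth read once vehicle control cultures reached saturation at 30 °C; 1 = growth at the plate median or of vehicle wells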; details: S. cerevisiae deletion strains, growth OD, locus YOR231W, strain MKK1, stronger effect = lower value
Out of some 5,500 compounds screened, about 2,000 (36%) were called active. About 18% were inconclusive and are not listed. The list shows a part of the results.
Respond numerically, and do not add a unit to the figure.

Example molecules with recorded normalized growth:
molecular-string: COc1cc(OC)c2c(OC)c(-c3ccc4c(c3)OCO4)c(=O)oc2c1
normalized growth: 0.943
--
molecular-string: O=c1c(O)c(-c2ccc(O)cc2)oc2ccccc12
normalized growth: 0.847
--
molecular-string: O=c1c(O)c(-c2ccccc2)oc2ccc3occc3c12
normalized growth: 0.909

Memo: CCOC(=O)c1cnc(-c2ccccn2)[nH]c1=O , reported normalized growth: 0.413

* * *

assay: chemical genetic growth profiling, strain panel (AID 1159580);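 note: tested at 20 µM; growth read once vehicle control cultures reached saturation at 30 °C; 1 = growth at the plate median or of vehicle wells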; details: S. cerevisiae deletion strains, growth OD, locus YNL067W, strain RPL9B, stronger effect = lower value
The whole screen tested about 5,500 compounds, of which about 2,000 (36%) were called active. About 18% were inconclusive and are not listed. The list shows a part of the results.
// reported normalized growth for each item listed
Enter a number only.

molecule: ClC1C(Cl)C(Cl)C(Cl)C(Cl)C1Cl (stereo not given)
normalized growth: 0.968
//
molecule: O=c1c(O)c(-c2ccccc2)oc2ccc3occc3c12
normalized growth: 0.863
//
molecule: CNC(=O)Oc1ccccc1OC(C)C
normalized growth: 1.03
//
molecule: CN1C(=O)CC[C@H]1c1cccnc1
normalized growth: 1.01

Query molecule follows.
Per the records, this molecule ( CCCc1ncc(C[n+]2ccccc2C)c(N)n1 ) has normalized growth equal to 0.992

* * *

assay: chemical genetic growth profiling, strain panel (AID 1159580);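 note: tested at 20 µM; growth read once vehicle control cultures reached saturation at 30 °C; 1 = growth at the plate median or of vehicle wells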; settings: S. cerevisiae deletion strains, growth OD, locus YOR290C, strain snf2, stronger effect = lower value
The whole screen tested about 5,500 compounds, of which about 2,000 (36%) were called active. Another 18% or so got no clear call; they are omitted. The list shows a part of the results.
Simple rule here: normalized growth less than 1 is 1 (yes), otherwise 0 (no).

Check out these entries, answers already filled in.
compound: O=C(/C=C/c1ccccc1)c1ccc(O[C@@H]2O[C@H](CO)[C@@H](O)[C@H](O)[C@H]2O)cc1O
class-name: 1 (yes)
--
compound: O=C(/C=C/c1ccccc1)c1ccc(O)cc1O
class-name: 1 (yes)
--
compound: Oc1cc2c(cc1O)C(c1ccccc1)CNCC2 (configuration not stated)
class-name: 1 (yes)
--
compound: COc1ccc(CC(=O)c2ccc(O)cc2O)cc1
class-name: 1 (yes)
--
compound: COc1cc(Cc2cnc(N)nc2N)cc(OC)c1OC
class-name: 0 (no)
--
compound: CNC(=O)N(C)c1nnc(C(C)(C)C)s1
class-name: 1 (yes)
--
compound: CC(C)C1CCC(C(=O)N[C@@H](Cc2ccccc2)C(=O)O)CC1 (some centres not stated)
class-name: 1 (yes)
--
compound: CC(=CC1CCC(C)C2CCC(C)=C12)C(=O)O (configuration not stated)
class-name: 1 (yes)
--
compound: COc1cc(OC)c2c(OC)c(-c3ccc4c(c3)OCO4)c(=O)oc2c1
class-name: 1 (yes)
--
compound: CON
class-name: 0 (no)

// query Given the entry O=C1C=CC(=O)c2c(O)c(Cl)c(Cl)c(O)c21 , would its reported normalized growth be below 1?
// result 1 (yes)

// query Would you kindly verify if normalized growth of C=CC[C@@H]1/C=C(\C)C[C@H](C)C[C@H](OC)[C@H]2O[C@@](O)(C(=O)C(=O)N3CCCC[C@H]3C(=O)O[C@H](/C(C)=C/[C@@H]3CC[C@@H](O)[C@H](OC)C3)[C@H](C)[C@@H](O)CC1=O)[C@H](C)C[C@@H]2OC is strictly less than 1?
// result 1 (yes)

// query Does the reported normalized growth of the following compound sit strictly below 1? O=C(c1ccccc1)c1ccc2n1CCC2C(=O)O (configuration not stated)
// result 1 (yes)
